Measured EC50 of individual entries
Tested on: symmetric dimethylation of arginine (SDMA) of PRMT5 substrates in MCF-7 cells
test_details: PRMT5 Cell Target Engagement (TE) Assay
Format: cell-based
experimental_parameters: 3 days treatment, SDMA high content imaging

{"compound": "CN1CC(C2CC2)Cn2cc(C(=O)N3CC[C@]4(Cc5ccccc5CN4)[C@H](O)C3)nc21 (single isomer, unassigned) [Example 139]", "units_of_measure": "µM", "EC50": 0.212}
{"compound": "CC(n1ccc(C(=O)N2CC[C@]3(Cc4ccccc4CN3)[C@H](O)C2)cc1=O)C(F)(F)F (single isomer, unassigned) [Example 102]", "units_of_measure": "µM", "EC50": 0.8}
{"compound": "CC(=O)N1CCC(Nc2cc(C(=O)N3CC[C@]4(Cc5ccccc5CN4)[C@H](O)C3)ccn2)C(F)(F)C1 (single isomer, unassigned) [Example 96]", "units_of_measure": "µM", "EC50": 0.767}
{"compound": "COC(C)c1ccc2nc(C(=O)N3CC[C@]4(Cc5ccccc5CN4)[C@H](O)C3)cn2c1 (single isomer, unassigned) [Example 22]", "units_of_measure": "µM", "EC50": 0.0168}
{"compound": "O=C(c1cn2c(n1)C(C1CCOC1)CC(C(F)(F)F)C2)N1CC[C@]2(Cc3ccccc3CN2)[C@H](O)C1 (single isomer, unassigned) [Example 160]", "units_of_measure": "µM", "EC50": 0.289}
{"compound": "O=C1Nc2cc(C(=O)N3CC[C@]4(Cc5ccccc5CN4)[C@H](O)C3)ccc2OC1C1CC1 (single isomer, unassigned) [Example 106]", "units_of_measure": "µM", "EC50": 0.0368}

---

assayed_system: Full-length (FL)-PRMT5-MEP50 enzyme complex (Homo sapiens, UniProt O14744)
Construct: Full-length (FL)-PRMT5-MEP50 enzyme complex (recombinant proteins from baculovirus-transfected Sf21 cells: FL-PRMT5; MW=73837 kDa and FL-MEP50; MW=38614); made in house; host or cells: baculovirus-transfected Sf21 cells
Sequence (O14744 whole entry): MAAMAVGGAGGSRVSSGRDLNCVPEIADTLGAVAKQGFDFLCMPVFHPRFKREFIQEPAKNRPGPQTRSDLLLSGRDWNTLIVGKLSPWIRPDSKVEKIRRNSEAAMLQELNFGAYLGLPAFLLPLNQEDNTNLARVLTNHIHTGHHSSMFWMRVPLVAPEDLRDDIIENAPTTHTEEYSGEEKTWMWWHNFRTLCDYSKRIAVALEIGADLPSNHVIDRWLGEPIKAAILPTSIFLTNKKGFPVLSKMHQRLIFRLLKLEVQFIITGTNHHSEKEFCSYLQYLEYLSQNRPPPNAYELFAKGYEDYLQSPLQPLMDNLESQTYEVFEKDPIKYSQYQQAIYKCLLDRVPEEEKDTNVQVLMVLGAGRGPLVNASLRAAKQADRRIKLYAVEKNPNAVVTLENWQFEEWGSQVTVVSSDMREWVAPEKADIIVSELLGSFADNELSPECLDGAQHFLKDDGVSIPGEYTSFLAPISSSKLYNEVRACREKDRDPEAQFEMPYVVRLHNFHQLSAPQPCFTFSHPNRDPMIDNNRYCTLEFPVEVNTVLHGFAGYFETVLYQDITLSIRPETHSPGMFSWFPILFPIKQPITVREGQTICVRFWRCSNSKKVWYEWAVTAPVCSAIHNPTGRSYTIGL
Sequence (Q9BQA1 whole entry partner): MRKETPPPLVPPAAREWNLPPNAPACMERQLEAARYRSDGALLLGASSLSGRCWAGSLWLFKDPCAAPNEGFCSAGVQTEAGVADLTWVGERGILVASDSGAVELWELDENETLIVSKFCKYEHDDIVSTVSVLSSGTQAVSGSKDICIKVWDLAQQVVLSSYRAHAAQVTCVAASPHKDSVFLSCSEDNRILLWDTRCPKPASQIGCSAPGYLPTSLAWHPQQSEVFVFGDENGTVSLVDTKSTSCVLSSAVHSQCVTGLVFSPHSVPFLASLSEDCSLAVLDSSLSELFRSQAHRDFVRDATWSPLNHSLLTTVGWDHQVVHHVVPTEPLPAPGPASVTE
test_details: PRMT5-MEP50 Enzyme Methylation Assay (Version A)
Assay type: biochemical
experimental_parameters: single EC50 = 4 parameter single site sigmoidal fit; EC50 1 = first value of 7 parameter biphasic fit; read-out: Enzyme Methylation Assay Version A (EC50 or EC50 1)
pEC50: −log10 of the molar value.

{"compound": "CO[C@H](C)c1cc(-c2sc(C)nc2C)cn2cc(C(=O)N3CC[C@]4(Cc5ccccc5CN4)[C@H](O)C3)nc12", "assayed_system": "Full-length (FL)-PRMT5-MEP50 enzyme complex (Homo sapiens, UniProt O14744)", "pEC50": 9.17}
{"compound": "O=C(c1cn2cc(Cl)cnc2n1)N1CC[C@]2(Cc3ccccc3CN2)[C@H](O)C1", "assayed_system": "Full-length (FL)-PRMT5-MEP50 enzyme complex (Homo sapiens, UniProt O14744)", "pEC50": 8.84}
{"compound": "Cc1ccc(C(=O)N2CC[C@]3(Cc4ccccc4CN3)[C@H](O)C2)cn1", "assayed_system": "Full-length (FL)-PRMT5-MEP50 enzyme complex (Homo sapiens, UniProt O14744)", "pEC50": 7.36}
{"compound": "CCOc1nc(Br)cn2cc(C(=O)N3CC[C@]4(Cc5ccccc5CN4)[C@H](O)C3)nc12", "assayed_system": "Full-length (FL)-PRMT5-MEP50 enzyme complex (Homo sapiens, UniProt O14744)", "pEC50": 9.09}
{"compound": "COC(C)c1cc(Br)c2nc(C(=O)N3CC[C@]4(Cc5ccccc5CN4)[C@H](O)C3)cn2c1 (single isomer, unassigned) [Example 61]", "assayed_system": "Full-length (FL)-PRMT5-MEP50 enzyme complex (Homo sapiens, UniProt O14744)", "pEC50": 9.17}
{"compound": "Cc1nc(C(F)(F)F)cn2cc(C(=O)N3CC[C@]4(Cc5ccccc5CN4)[C@H](O)C3)nc12", "assayed_system": "Full-length (FL)-PRMT5-MEP50 enzyme complex (Homo sapiens, UniProt O14744)", "pEC50": 8.41}
{"compound": "CO[C@H](C)c1cc(N2CCC(n3ccnc3)C2)cn2cc(C(=O)N3CC[C@]4(Cc5ccccc5CN4)[C@H](O)C3)nc12 (some centres unmarked)", "assayed_system": "Full-length (FL)-PRMT5-MEP50 enzyme complex (Homo sapiens, UniProt O14744)", "pEC50": 8.27}
{"compound": "N#CC1(c2cc(Br)cn3cc(C(=O)N4CC[C@]5(Cc6ccccc6CN5)[C@H](O)C4)nc23)CC1", "assayed_system": "Full-length (FL)-PRMT5-MEP50 enzyme complex (Homo sapiens, UniProt O14744)", "pEC50": 8.93}

---

assayed_system: Full-length (FL)-PRMT5-MEP50 enzyme complex (Homo sapiens, UniProt O14744)
Construct: Full-length (FL)-PRMT5-MEP50 enzyme complex (recombinant proteins from baculovirus-transfected Sf21 cells: FL-PRMT5; MW=73837 kDa and FL-MEP50; MW=38614); made in house; host or cells: baculovirus-transfected Sf21 cells
test_details: PRMT5-MEP50 Enzyme Methylation Assay (Version A)
Assay type: biochemical
experimental_parameters: single EC50 = 4 parameter single site sigmoidal fit; EC50 1 = first value of 7 parameter biphasic fit; read-out: Enzyme Methylation Assay Version A (EC50 or EC50 1)
Measured log10 of EC50 of individual entries
property_measured: log10 of EC50 (log10 of the value in nM)

{"compound": "O=C(c1cn2cc(Br)cc(C(O)C(F)(F)F)c2n1)N1CC[C@]2(Cc3ccccc3CN2)[C@H](O)C1 (single isomer, unassigned) [Example 30]", "property_measured": "log10 of EC50", "recorded_number": -0.23}
{"compound": "O=C(c1cn2cc(O)cnc2n1)N1CC[C@]2(Cc3ccccc3CN2)[C@H](O)C1", "property_measured": "log10 of EC50", "recorded_number": 2.92}
{"compound": "Cc1cn2cc(C(=O)N3CC[C@]4(Cc5ccccc5CN4)[C@H](O)C3)nc2c(Br)n1", "property_measured": "log10 of EC50", "recorded_number": 2.31}
{"compound": "CC(C)(O)c1cc(Br)cn2cc(C(=O)N3CCC4(Cc5ccccc5CN4)C(O)C3)nc12 (stereo not drawn)", "property_measured": "log10 of EC50", "recorded_number": 0.69}
{"compound": "O=C(c1cn2cc(C(F)(F)F)cc(C3CCOC3)c2n1)N1CC[C@]2(Cc3ccccc3CN2)[C@H](O)C1 (stereo partly drawn)", "property_measured": "log10 of EC50", "recorded_number": -0.10}
{"compound": "O=C(c1ccc2c(O)c(CC(F)(F)F)cnc2c1)N1CC[C@]2(Cc3ccccc3CN2)[C@H](O)C1", "property_measured": "log10 of EC50", "recorded_number": 0.63}
{"compound": "O=C(c1cn2cccc(Br)c2n1)N1CC[C@]2(Cc3ccccc3CN2)[C@H](O)C1", "property_measured": "log10 of EC50", "recorded_number": 0.57}
{"compound": "O=C(c1nn2cc(Br)cnc2c1Cl)N1CC[C@]2(Cc3ccccc3CN2)[C@H](O)C1", "property_measured": "log10 of EC50", "recorded_number": -0.15}
{"compound": "CN1CCn2cc(C(=O)N3CC[C@]4(Cc5ccccc5CN4)[C@H](O)C3)nc2C1", "property_measured": "log10 of EC50", "recorded_number": 1.31}
{"compound": "CC(C#N)c1cnc2nc(C(=O)N3CC[C@]4(Cc5ccccc5CN4)[C@H](O)C3)cn2c1 (stereo partly drawn)", "property_measured": "log10 of EC50", "recorded_number": 0.58}
{"compound": "CC(C)(O)COc1nc(Br)cn2cc(C(=O)N3CC[C@]4(Cc5ccccc5CN4)[C@H](O)C3)nc12", "property_measured": "log10 of EC50", "recorded_number": -0.36}
{"compound": "O=C(c1cn2cc(Br)c(O)cc2n1)N1CC[C@]2(Cc3ccccc3CN2)[C@H](O)C1", "property_measured": "log10 of EC50", "recorded_number": 1.33}
{"compound": "Cc1nc(Br)cn2cc(C(=O)N3CC[C@]4(Cc5ccccc5CN4)[C@H](O)C3)nc12", "property_measured": "log10 of EC50", "recorded_number": 0.08}
{"compound": "CC(C)N1CCNc2cc(C(=O)N3CC[C@]4(Cc5ccccc5CN4)[C@H](O)C3)ccc2C1=O", "property_measured": "log10 of EC50", "recorded_number": 0.56}
{"compound": "COC(C)c1cc(Br)cn2cc(C(=O)N3CC[C@]4(Cc5ccc(Cl)cc5CN4)[C@H](O)C3)nc12 (single isomer, unassigned)", "property_measured": "log10 of EC50", "recorded_number": 0.15}
{"compound": "O=C(c1cn2cc(Cl)cc(Cl)c2n1)N1CC[C@]2(Cc3ccccc3CN2)[C@H](O)C1", "property_measured": "log10 of EC50", "recorded_number": 0.05}
{"compound": "CC1CC(C(F)(F)F)Cn2cc(C(=O)N3CC[C@]4(Cc5ccccc5CN4)[C@H](O)C3)nc21 (single isomer, unassigned) [Example 167]", "property_measured": "log10 of EC50", "recorded_number": 0.98}
{"compound": "O=C(c1cn2cc(Br)cnc2n1)N1CC[C@]2(Cc3ccccc3CN2)[C@H](O)C1", "property_measured": "log10 of EC50", "recorded_number": -0.34}
{"compound": "Cc1cn2cc(C(=O)N3CC[C@]4(Cc5ccccc5CN4)[C@H](O)C3)nc2nc1O", "property_measured": "log10 of EC50", "recorded_number": 1.85}
{"compound": "CC(n1ccc(C(=O)N2CC[C@]3(Cc4ccccc4CN3)[C@H](O)C2)cc1=O)C(F)(F)F (single isomer, unassigned) [Example 102]", "property_measured": "log10 of EC50", "recorded_number": 1.72}
{"compound": "O=C(c1cn2cc(Br)c(C(F)(F)F)nc2n1)N1CC[C@]2(Cc3ccccc3CN2)[C@H](O)C1", "property_measured": "log10 of EC50", "recorded_number": 0.69}
{"compound": "O=C(c1cn2cc(Cl)ccc2n1)N1CC[C@]2(Cc3ccccc3CN2)[C@H](O)C1", "property_measured": "log10 of EC50", "recorded_number": -0.12}
{"compound": "O=C(c1cn2cc(F)ccc2n1)N1CC[C@]2(Cc3ccccc3CN2)[C@H](O)C1", "property_measured": "log10 of EC50", "recorded_number": 0.58}
{"compound": "O=C(c1ccnc2ncnn12)N1CC[C@]2(Cc3ccccc3CN2)[C@H](O)C1", "property_measured": "log10 of EC50", "recorded_number": 1.48}
{"compound": "O=C(c1cn2cccc(F)c2n1)N1CC[C@]2(Cc3ccccc3CN2)[C@H](O)C1", "property_measured": "log10 of EC50", "recorded_number": 1.42}
{"compound": "N#CC1(c2cnc3nc(C(=O)N4CC[C@]5(Cc6ccccc6CN5)[C@H](O)C4)cn3c2)CC12CC2 (single isomer, unassigned) [Example 83]", "property_measured": "log10 of EC50", "recorded_number": 0.52}
{"compound": "O=C(c1cnc2ncc(Cl)cn12)N1CC[C@]2(Cc3ccccc3CN2)[C@H](O)C1", "property_measured": "log10 of EC50", "recorded_number": 1.09}
{"compound": "Cc1cn2cc(C(=O)N3CC[C@]4(Cc5ccccc5CN4)[C@H](O)C3)nc2c(Cl)n1", "property_measured": "log10 of EC50", "recorded_number": 1.07}
{"compound": "N#Cc1cc(Cl)c2nc(C(=O)N3CC[C@]4(Cc5ccccc5CN4)[C@H](O)C3)cn2c1", "property_measured": "log10 of EC50", "recorded_number": 1.75}
{"compound": "O=C(c1cn2ccc(Cl)c(I)c2n1)N1CC[C@]2(Cc3ccccc3CN2)[C@H](O)C1", "property_measured": "log10 of EC50", "recorded_number": 1.42}
